Where do the numbers come from? From ChEMBL document CHEMBL3739382.

target: Tyrosinase (Mus musculus) (UniProt P11344); test: Inhibition of tyrosinase in mouse B16F10 cells assessed as remaining melanin production at 50 uM relative to control; conditions: B16-F10
Sequence (P11344 whole entry): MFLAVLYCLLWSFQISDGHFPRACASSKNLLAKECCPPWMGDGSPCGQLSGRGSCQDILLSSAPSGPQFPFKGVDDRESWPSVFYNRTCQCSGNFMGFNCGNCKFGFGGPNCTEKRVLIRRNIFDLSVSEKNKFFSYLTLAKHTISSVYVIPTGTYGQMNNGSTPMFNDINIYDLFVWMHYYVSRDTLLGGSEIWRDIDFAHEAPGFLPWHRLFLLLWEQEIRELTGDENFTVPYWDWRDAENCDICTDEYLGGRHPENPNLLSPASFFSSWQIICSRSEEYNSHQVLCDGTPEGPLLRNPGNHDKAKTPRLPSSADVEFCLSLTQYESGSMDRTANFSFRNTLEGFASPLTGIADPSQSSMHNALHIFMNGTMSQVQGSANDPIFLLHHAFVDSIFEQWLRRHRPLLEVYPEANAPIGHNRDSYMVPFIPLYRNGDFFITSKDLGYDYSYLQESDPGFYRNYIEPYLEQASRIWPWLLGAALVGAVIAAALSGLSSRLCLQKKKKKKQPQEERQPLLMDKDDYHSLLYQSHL
Readout label: residual activity (%)

- Compound: "NNC(=O)c1ccncc1 [ISONIAZID]"
  Readout label: "residual activity"
  Test result: 102
- Compound: "NC(=S)Nc1ccccc1 [PHENYLTHIOUREA]"
  Readout label: "residual activity"
  Test result: 54
- Compound: "NC(=S)c1ccncc1"
  Readout label: "residual activity"
  Test result: 104
- Compound: "CCCc1cc(C(N)=S)ccn1 [PROTIONAMIDE]"
  Readout label: "residual activity"
  Test result: 100
- Compound: "NC(=S)c1ccccn1"
  Readout label: "residual activity"
  Test result: 56
- Compound: "CC(=O)Nc1ccccc1 [ACETANILIDE]"
  Readout label: "residual activity"
  Test result: 102
- Compound: "CC(=S)Nc1ccccc1"
  Readout label: "residual activity"
  Test result: 57
- Compound: "NC(=S)c1cccnc1"
  Readout label: "residual activity"
  Test result: 106
- Compound: "CCc1cc(C(N)=S)ccn1 [ETHIONAMIDE]"
  Readout label: "residual activity"
  Test result: 104
- Compound: "NC(=S)c1ccccc1"
  Readout label: "residual activity"
  Test result: 63
